Listed compounds paired with reported AUC(0-t)
Experiment: Plasma pharmacokinetics after single oral dose in male rats
Assay type: in vivo
Details: rat, geometric mean, plasma, single 100 mg oral dose, N=3
property.measured: AUC(0-t) (ng·h/mL)

| compound | recorded.number |
| --- | --- |
| [2H]C([2H])([2H])Oc1cc(CCC(=O)CC(=O)CCc2ccc(O)c(OC([2H])([2H])[2H])c2)ccc1O [THCu-d6, d6-Tetrahydrocurumin] | 43000 |
| COc1cc(CCC(=O)CC(=O)CCc2ccc(O)c(OC)c2)ccc1O [THCu, tetrahydrocurcumin] | 38300 |

---

// reported Cmax for each item listed
Assay: Plasma pharmacokinetics after single oral dose in male rats
Assay type: in vivo
Settings: rat, geometric mean, plasma, single 100 mg oral dose, N=3

| molecule | unit.spec | Cmax |
| --- | --- | --- |
| COc1cc(CCC(=O)CC(=O)CCc2ccc(O)c(OC)c2)ccc1O [THCu, tetrahydrocurcumin] | ng/mL | 4070 |
| [2H]C([2H])([2H])Oc1cc(CCC(=O)CC(=O)CCc2ccc(O)c(OC([2H])([2H])[2H])c2)ccc1O [THCu-d6, d6-Tetrahydrocurumin] | ng/mL | 2820 |
